Tested on: HL-60
ASSAY_SUMMARY: Cytotoxicity against human HL60 cells
Type: functional, cell-based
pIC50: −log10 of the molar value.
OBSERVED_PROPERTY: pIC50

1. CC(=O)OC[C@H]1O[C@@H](O[C@H]2[C@H](O[C@H]3CC[C@]4(C)[C@H]5C[C@@H](O)[C@@H]6[C@@H]([C@@](C)(O)CCC=C(C)C)CC[C@@]6(C)[C@]5(C)CC[C@H]4C3(C)C)O[C@H](CO)[C@@H](O)[C@@H]2O)[C@H](O)[C@@H](O)[C@@H]1O ... < 5.00
2. C/C(=C\C[C@H](O)C(C)(C)O)[C@H]1CC[C@]2(C)[C@@H]1[C@H](O)C[C@@H]1[C@@]3(C)CC[C@H](O)C(C)(C)[C@@H]3[C@@H](O[C@@H]3O[C@H](CO)[C@@H](O)[C@H](O)[C@H]3O)C[C@]12C ... < 5.00
3. CC(C)=CCC[C@@](C)(O)[C@H]1CC[C@]2(C)[C@@H]1[C@H](O)C[C@@H]1[C@@]3(C)CC[C@H](O)C(C)(C)[C@@H]3[C@@H](O[C@@H]3O[C@H](CO)[C@@H](O)[C@H](O)[C@H]3O)C[C@]12C ... < 5.00
4. CO[C@@H](/C=C(\C)[C@H]1CC[C@]2(C)[C@@H]1[C@H](O)C[C@@H]1[C@@]3(C)CC[C@H](O[C@@H]4O[C@H](CO)[C@@H](O)[C@H](O)[C@H]4O[C@@H]4O[C@H](CO)[C@@H](O)[C@H](O)[C@H]4O)C(C)(C)[C@@H]3CC[C@]12C)[C@@H]1OC1(C)C ... < 5.00
